Entry source: patent US20100221763A1

- tested-target: Rat recombinant α2,3(O)ST (Rattus norvegicus)
- Construct: purchased Calbiochem
- Sequence (Q11205 whole entry): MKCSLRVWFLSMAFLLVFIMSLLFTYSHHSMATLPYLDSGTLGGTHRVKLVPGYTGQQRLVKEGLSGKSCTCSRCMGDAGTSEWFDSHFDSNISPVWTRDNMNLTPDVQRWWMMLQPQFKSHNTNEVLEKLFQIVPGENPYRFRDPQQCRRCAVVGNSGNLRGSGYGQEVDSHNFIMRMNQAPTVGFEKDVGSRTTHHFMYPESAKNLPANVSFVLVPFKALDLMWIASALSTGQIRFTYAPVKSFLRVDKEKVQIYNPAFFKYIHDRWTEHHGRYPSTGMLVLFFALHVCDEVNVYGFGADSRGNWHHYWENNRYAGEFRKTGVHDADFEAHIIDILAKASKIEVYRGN
- protocol-description: Sialyltransferase assay with cloned α2,3(O)ST
- Assay type: biochemical
- assay-conditions: CMP-NeuAc 150 μM; Lineweaver-Burke plot
The compounds listed here are annotated with their Vmax.
A bare number is not enough; add the unit after it.

>  <smiles-repr>
CC(=O)N[C@H]1[C@H](OC[C@H]2O[C@H](OCc3ccccc3)[C@H](NC(C)=O)[C@@H](O[C@@H]3O[C@H](C)[C@H](O)[C@H](O)[C@H]3O)[C@H]2O)O[C@H](CO)[C@@H](O)[C@@H]1O

>  <Vmax>
1562 pmol/h

$$$$

// switching to the query compound
Which measured Vmax value corresponds to "CO[C@H]1O[C@H](CO)[C@H](O)[C@H](O[C@@H]2O[C@H](CO)[C@H](O)[C@H](O[C@@H]3O[C@H](C)[C@H](O)[C@H](O)[C@H]3O)[C@H]2NC(C)=O)[C@H]1O" ? 1873 pmol/h
